Cited source: patent US6818653B1

Reported values of MIC for individual entries
Test system: Candida glabrata ATCC2001

CCCCCCCSC1=C(Cl)C(=O)c2ncccc2C1=O [compound 18] :: 50 µg/mL
O=C1C(Nc2ccc(Cl)cc2)=C(Br)C(=O)c2ncccc21 [Compound No. 1] :: 12.5 µg/mL
CCCCSC1=C(Cl)C(=O)c2ncccc2C1=O [compound 15] :: 12.5 µg/mL
CSC1=C(Nc2ccc(I)cc2)C(=O)c2cccnc2C1=O [compound 7] :: 3.2 µg/mL
CCCCCCCCCSC1=C(Cl)C(=O)c2ncccc2C1=O [compound 20] :: 50 µg/mL
N#CSC1=C(Nc2ccc(Cl)cc2)C(=O)c2cccnc2C1=O [compound 10] :: 12.5 µg/mL
CC(=O)N1CCN(c2ccc(OCC3COC(Cn4ccnc4)(c4ccc(Cl)cc4Cl)O3)cc2)CC1 (stereo not shown) [Ketoconazole, ketoconazole, reference compound] :: 12.5 µg/mL
CCCCCSC1=C(Cl)C(=O)c2ncccc2C1=O [compound 16] :: 12.5 µg/mL

Incoming: Specify the recorded MIC for CCCSC1=C(Cl)C(=O)c2ncccc2C1=O [compound 14] , system: Candida glabrata ATCC2001.
Outgoing: 50 µg/mL

Incoming: Answer briefly: MIC recorded on Candida glabrata ATCC2001 for N#CSC1=C(Nc2ccc(Br)cc2)C(=O)c2cccnc2C1=O [compound 9]
Outgoing: 6.3 µg/mL

====

Candida parasilosis ATCC22019: recorded MIC for assorted molecules
Give your result in µg/mL as a bare value.

CCCSC1=C(Cl)C(=O)c2ncccc2C1=O :: 12.5
CCCCCSC1=C(Cl)C(=O)c2ncccc2C1=O :: 6.3
OC(Cn1cncn1)(Cn1cncn1)c1ccc(F)cc1F [Fluconazole, fluconazole, reference compound] :: 12.5
N#CSC1=C(Nc2ccc(Cl)cc2)C(=O)c2cccnc2C1=O :: 100
O=C1C(Nc2ccc(Br)cc2)=C(Br)C(=O)c2ncccc21 :: 25

Incoming: Please look at this molecule and report its MIC: CCCCCCCSC1=C(Cl)C(=O)c2ncccc2C1=O
Outgoing: 6.3

Incoming: Quote MIC reported for CSC1=C(Nc2ccc(I)cc2)C(=O)c2cccnc2C1=O please.
Outgoing: 25

Incoming: Identify measured MIC corresponding to CCCCSC1=C(Cl)C(=O)c2ncccc2C1=O
Outgoing: 25

====

Recorded below: MIC, system Candida glabrata ATCC2001.
Supply the numeric figure in µg/mL, leaving out any unit text.

CCCCCCCCSC1=C(Cl)C(=O)c2ncccc2C1=O :: 25
N#CSC1=C(Nc2ccc(I)cc2)C(=O)c2cccnc2C1=O :: 12.5
OC(Cn1cncn1)(Cn1cncn1)c1ccc(F)cc1F [Fluconazole, fluconazole, reference compound] :: 25

Incoming: Consider the molecule CSC1=C(Nc2ccc(Cl)cc2)C(=O)c2cccnc2C1=O tested on Candida glabrata ATCC2001; state its MIC.
Outgoing: 6.3

Incoming: Fetch value of MIC on Candida glabrata ATCC2001 for O=C1C(Nc2ccc(Br)cc2)=C(Br)C(=O)c2ncccc21 .
Outgoing: 6.3

====

Examples of compounds with documented MIC C. parapsilosis follow.
System: Candida parasilosis ATCC22019
Test: MIC by solid medium dilution method
Type: cell-based
Settings: Sabouraud's agar, 3 days at 30° C.
Number only, in µg/mL; omit the unit.

Guide cases for MIC C. parapsilosis, answers given:
CC(=O)c1ccc(NC2=C(Cl)C(=O)c3ncccc3C2=O)cc1 :: 6.3
O=C1C(Nc2cc(Cl)cc(Cl)c2)=C(Cl)C(=O)c2ncccc21 :: 6.3
N#CSC1=C(Nc2cc(F)cc(F)c2)C(=O)c2cccnc2C1=O :: 1.6
CC(=O)c1ccc(NC2=C(SC#N)C(=O)c3ncccc3C2=O)cc1 :: 3.2
CCSC1=C(Cl)C(=O)c2ncccc2C1=O :: 3.2

Then this compound:
Incoming: Read off the recorded MIC C. parapsilosis for CSC1=C(Nc2ccc(F)c(F)c2F)C(=O)c2cccnc2C1=O
Outgoing: 25.0
